# target.desc: MDMX (Homo sapiens, UniProt O15151)
# Sequence (O15151 1-125): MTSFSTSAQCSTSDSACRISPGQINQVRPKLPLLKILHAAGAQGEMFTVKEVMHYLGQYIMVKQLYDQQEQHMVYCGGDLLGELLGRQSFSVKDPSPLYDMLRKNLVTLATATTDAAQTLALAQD
# experiment: Competitive fluorescence polarization assay for MDMX
# Format: binding
# condition: competitive FP assay, read-out: Ki (MDMX)
Where a SMILES comes first, the peptide text is derived from it. Bridges are numbered along the chain shown (N, C = ends). [ ]: non-standard residue; d: D form. R8 = C=CCCCCCC[C@@](C)(N)C(=O)O; Cba = N[C@@H](CC1CCC1)C(=O)O; S5 = C=CCCC[C@](C)(N)C(=O)O; Nle = CCCC[C@H](N)C(=O)O

molecule | target.desc | Ki
CC(=O)N[C@@H](CC(C)C)C(=O)N[C@H](C(=O)N[C@@H](Cc1ccccc1)C(=O)N[C@]1(C)CCCCCCC=CCCC[C@@](C)(C(=O)N[C@@H](CO)C(=O)N[C@@H](C)C(=O)N[C@@H](Cc2ccccc2)C(N)=O)NC(=O)[C@H](CC2CCC2)NC(=O)[C@H](CCC(N)=O)NC(=O)[C@H](C)NC(=O)[C@H](Cc2c[nH]c3ccccc23)NC(=O)[C@H](Cc2ccc(O)cc2)NC(=O)[C@H](CCC(=O)O)NC1=O)[C@@H](C)O [compound 256] (Ac-LTF[R8]EYWAQ[Cba][S5]SAF-NH2; staple 4-11) | MDMX (Homo sapiens, UniProt O15151) | 10 to 100 nM
CCCC[C@H](NC(=O)[C@H](C)NC(=O)[C@H](CO)NC(=O)[C@]1(C)CCCC=CCCCCCC[C@@](C)(NC(=O)[C@H](Cc2ccccc2)NC(=O)[C@@H](NC(=O)[C@H](CC(C)C)NC(C)=O)[C@@H](C)O)C(=O)N[C@@H](CCC(=O)O)C(=O)N[C@@H](Cc2ccc(O)cc2)C(=O)N[C@@H](Cc2c[nH]c3ccccc23)C(=O)N[C@@H](CO)C(=O)N[C@@H](CCC(N)=O)C(=O)N[C@@H](CC2CCC2)C(=O)N1)C(=O)N[C@@H](C)C(N)=O [compound 245] (Ac-LTF[R8]EYWSQ[Cba][S5]SA[Nle]A-NH2; staple 4-11) | MDMX (Homo sapiens, UniProt O15151) | 10 to 100 nM
CCCC[C@H](NC(=O)[C@H](C)NC(=O)[C@H](CO)NC(=O)[C@]1(C)CCCC=CCCCCCC[C@@](C)(NC(=O)[C@H](Cc2ccccc2)NC(=O)[C@@H](NC(=O)[C@H](CC(C)C)NC(C)=O)[C@@H](C)O)C(=O)N[C@@H](CCC(=O)O)C(=O)N[C@@H](Cc2ccc(C(=O)O)cc2)C(=O)N[C@@H](Cc2c[nH]c3cc(Cl)ccc23)C(=O)N[C@@H](C)C(=O)N[C@@H](CCC(N)=O)C(=O)N[C@@H](CC2CCC2)C(=O)N1)C(=O)N[C@@H](C)C(N)=O (single isomer, unassigned) [compound 334] | MDMX (Homo sapiens, UniProt O15151) | < 10 nM
CC(=O)N[C@@H](CC(C)C)C(=O)N[C@H](C(=O)N[C@@H](Cc1ccccc1)C(=O)N[C@]1(C)CCCCCCC=CCCC[C@@](C)(C(=O)N[C@@H](C)C(=O)N[C@@H](C)C(=O)N[C@@H](Cc2ccccc2)C(=O)N[C@H](C)C(N)=O)NC(=O)[C@H](CC(C)C)NC(=O)[C@H](CCC(N)=O)NC(=O)[C@H](C)NC(=O)[C@H](Cc2c[nH]c3ccccc23)NC(=O)[C@H](Cc2ccc(O)cc2)NC(=O)[C@H](CCC(=O)O)NC1=O)[C@@H](C)O (single isomer, unassigned) [compound 218] | MDMX (Homo sapiens, UniProt O15151) | 10 to 100 nM

These data points were gathered from patent US8927500B2.
